Entries and their inhibition in vivo at 10 µM
System: Tobacco mosaic virus
Assay: In vivo antiviral activity against Tobacco mosaic virus strain U1 (TMV) infected left side of Nicotiana glutinosa leaves assessed as decrease in local lesion numbers at 10 uM co-incubated with virus for 30 min before inoculation onto leaves measured at 3-4 days after viral challenge by half-leaf method
Type: functional

compound	tested-on	inhibition in vivo at 10 µM (%)
COC(=O)[C@]12OC[C@]34[C@H]([C@@H](O)[C@@H]1O)[C@@]1(C)[C@H](O)[C@@H](O)C=C(C)[C@@H]1C[C@H]3OC(=O)[C@H](OC(C)=O)[C@@H]24 [YADANZIOSIDE D]	Tobacco mosaic virus	59.2
CC1=CC(=O)[C@@H](O)[C@]2(C)[C@H]3[C@@H](O)[C@H](O)[C@]4(CO)OC[C@@]35[C@@H](C[C@@H]12)OC(=O)[C@H](O)[C@]54O [YADANZIOLIDE A]	Tobacco mosaic virus	58.7
CC1=CC(=O)[C@@H](O)[C@]2(C)[C@H]3[C@@H](O)[C@H](O)[C@]4(C)OC[C@@]35[C@@H](C[C@@H]12)OC(=O)[C@H](O)[C@]54O	Tobacco mosaic virus	66.7
COC(=O)[C@]12OC[C@]34[C@H]([C@@H](O)[C@@H]1O)[C@@]1(C)CC(=O)C(O[C@@H]5O[C@H](CO)[C@@H](O)[C@H](O)[C@H]5O)=C(C)[C@@H]1C[C@H]3OC(=O)[C@H](OC(=O)C=C(C)C)[C@@H]24 [Bruceoside-B]	Tobacco mosaic virus	66.7
COC(=O)[C@@]12OC[C@]34[C@H]([C@@H](O)[C@@H]1O)[C@@]1(C)CC(=O)C(O)=C(C)[C@@H]1C[C@H]3OC(=O)[C@H](OC(C)=O)[C@@H]24	Tobacco mosaic virus	81.5
